Molecular target: D(1A) dopamine receptor (Homo sapiens, UniProt P21728)
Sequence (P21728 whole entry): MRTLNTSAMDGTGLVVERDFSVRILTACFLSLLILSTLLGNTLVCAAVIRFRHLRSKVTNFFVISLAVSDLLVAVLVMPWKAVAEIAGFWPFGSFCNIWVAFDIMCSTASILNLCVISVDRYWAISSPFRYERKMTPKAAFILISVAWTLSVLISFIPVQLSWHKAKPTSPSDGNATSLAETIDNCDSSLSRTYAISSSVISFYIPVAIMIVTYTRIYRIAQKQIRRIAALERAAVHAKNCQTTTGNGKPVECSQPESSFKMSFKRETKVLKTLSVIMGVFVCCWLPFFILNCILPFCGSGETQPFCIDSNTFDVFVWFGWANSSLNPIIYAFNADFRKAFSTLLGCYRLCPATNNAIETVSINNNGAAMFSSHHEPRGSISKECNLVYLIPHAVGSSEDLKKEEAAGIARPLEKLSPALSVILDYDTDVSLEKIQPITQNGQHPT
Assay: Inhibition of D1 dopamine receptor in HEK 293 cells by intracellular calcium assay
Type: functional, cell-based, HEK293
REPORTED ENDPOINT: pKi
Keep it numeric: pKi is minus log10 of the concentration in mol/L.

- COMPOUND STRING: "COc1ccc2c(c1)CCN(C)CCc1cc(OC)ccc1C2"
  REPORTED ENDPOINT: "pKi"
  RESULT NUMBER: 7.57
- COMPOUND STRING: "COc1c(Cl)cc2c(c1Cl)Cc1ccccc1CCN(C)CC2"
  REPORTED ENDPOINT: "pKi"
  RESULT NUMBER: 7.47

Write pKi of COc1cccc2c1Cc1ccccc1CCN(C)CC2 ; system used: D(1A) dopamine receptor (Homo sapiens, UniProt P21728)
7.42

Specify pKi for CN1CCc2ccccc2Cc2cc(Cl)c(O)c(Cl)c2CC1 , system D(1A) dopamine receptor (Homo sapiens, UniProt P21728).
8.42

Report value: pKi, system: D(1A) dopamine receptor (Homo sapiens, UniProt P21728), molecule: CN1CCc2ccccc2Cc2cc(N)c(O)cc2CC1
7.68

Check D(1A) dopamine receptor (Homo sapiens, UniProt P21728) data and give pKi for COc1ccc2c(c1)CCN(C)CCc1ccccc1C2 .
7.62

Name the value of pKi reported for COc1ccc2c(c1)Cc1ccccc1CCN(C)CC2 when tested on D(1A) dopamine receptor (Homo sapiens, UniProt P21728).
6.25

Check D(1A) dopamine receptor (Homo sapiens, UniProt P21728) data and give pKi for CN1CCc2ccccc2Cc2ccc(O)c(Cl)c2CC1 .
9.34
